system: DIV30; test: qHTS profiling for inhibitors of Plasmodium falciparum proliferation (AID 504749); note: nearly all actives have a fitted effect of over 60% in size; details: P. falciparum in erythrocytes, SYBR Green DNA, 72 h; series mostly up to 28.7 µM
Records with an inconclusive call do not appear. Activity calls are given as the source filed them. Calls come from the whole dose curve; as a rule, active = well fitted inhibition curve with a large enough effect; inconclusive = small, poorly fitted or top-dose-only effect; inactive = flat fitted curve, though single readings scatter.
Thanks in advance; please answer with one of these: active, inactive

Status in this test for `NC/C=C/C(=O)O` ?
inactive

Status in this test for NC1=NCC2c3ccccc3Cc3ccccc3N12 (stereo not given) ?
inactive

Status in this test for `CN(C)CCOC(=O)COc1ccc(Cl)cc1` ?
inactive

Status in this test for `CC(=O)Nc1nnc(S(N)(=O)=O)s1` ?
inactive

Status in this test for `CC(C)[N+](C)(CCOC(=O)C1c2ccccc2Oc2ccccc21)C(C)C` ?
inactive

Status in this test for `NCCCNCCSP(=O)(O)O` ?
inactive

Status in this test for `CN(C)C(=O)Oc1cccc([N+](C)(C)C)c1` ?
inactive

Status in this test for `COc1ccc([C@@H]2Sc3ccccc3N(CCN(C)C)C(=O)[C@@H]2OC(C)=O)cc1` ?
inactive

Status in this test for `CN=C(NC#N)NCCSCc1nc[nH]c1C` ?
inactive

Status in this test for `C[n+]1cc2c3c(ccc2c2ccc4cc5c(cc4c21)OCO5)OCO3` ?
inactive

Status in this test for `CCN(CC)CCNC(=O)c1ccc(NC(C)=O)cc1` ?
inactive

Status in this test for `CCCOc1ccccc1-c1nc2n[nH]nc2c(=O)[nH]1` ?
inactive

Status in this test for `CCN(CC)CC(=O)Nc1c(C)cccc1C` ?
inactive

Status in this test for `C[C@]12CCC(=O)C=C1CC[C@@H]1[C@@H]2CC[C@@]2(C)[C@H]1CC[C@]2(O)C(=O)CO` ?
inactive

Status in this test for `NC(=Nc1ccccc1)Nc1ccccc1` ?
inactive

Status in this test for `Cc1nnc(SCC2=C(C(=O)O)N3C(=O)[C@@H](NC(=O)Cn4cnnn4)[C@H]3SC2)s1` ?
inactive

Status in this test for `CC1=NS(=O)(=O)c2cc(Cl)ccc2N1` ?
inactive

Status in this test for `Cc1ccc(=O)n(-c2ccccc2)c1` ?
inactive

Status in this test for `CCOC(=O)c1cnc2c(cnn2CC)c1NN=C(C)C` ?
inactive

Status in this test for CC(C(=O)O)c1ccc(CC2CCCC2=O)cc1 (stereo not given) ?
inactive

Status in this test for `C[N+](C)(C)CCOC(=O)CCC(=O)OCC[N+](C)(C)C` ?
inactive

Status in this test for Nc1c2c(nc3ccccc13)CCCC2O (stereo not given) ?
inactive

Status in this test for `COC(=O)[C@H]1[C@H]2C[C@@H]3c4[nH]c5cc(OC)ccc5c4CCN3C[C@H]2C[C@@H](OC(=O)c2cc(OC)c(OC)c(OC)c2)[C@@H]1OC` ?
active

Status in this test for `Cc1scc2c1N(C(=O)CN1CCN(C)CC1)c1ccccc1NC2=O` ?
inactive

Status in this test for `COc1cc2c(cc1OC)-c1cc(=Nc3c(C)cc(C)cc3C)n(C)c(=O)n1CC2` ?
active
